- Tested on: PPARg:RXRa 90nM:30nM, anti-RXR (NR concentration 90 nM, RXRa partner concentration 30 nM)
- assay-method-text: PBM binding z-score (relative to random genomic background probes); higher = stronger binding; sequences stand for … in GC…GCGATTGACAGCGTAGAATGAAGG
The threshold is inclusive: PBM binding z-score of exactly 3 counts as Fulfilled; values below receive Not fulfilled.

Solved entries:
- sequence-input: "CTAACTAGGTCAGAACAGGACAGTGAAGGATGAT"
  discrete-label: "Fulfilled"
- sequence-input: "ACTCGGAGGACAAAGGTCAGAGCGACGCCAGTGA"
  discrete-label: "Fulfilled"

Given the entry CGCCAAAGTTCAACTAAGGTAACGTAAAGCACGC , answer whether its PBM binding z-score meets or surpasses 3. Fulfilled

Given the entry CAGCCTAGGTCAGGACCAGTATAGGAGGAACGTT , answer whether its PBM binding z-score meets or surpasses 3. Not fulfilled

Given the entry ACTAGTTGGTCAGCTGAGGTTACACACAATTCGG , answer whether its PBM binding z-score meets or surpasses 3. Not fulfilled

Given the entry ATATGTAGGTTATCCGGTCATTCAGTTTGCGCAT , answer whether its PBM binding z-score meets or surpasses 3. Fulfilled

Given the entry TCTCGGAGAACACGAAGGTCAGAGCTTTCCAGAG , answer whether its PBM binding z-score meets or surpasses 3. Not fulfilled

Given the entry TCTATGAGTTGATTAGGGCAACCGAAACAGCGGA , answer whether its PBM binding z-score meets or surpasses 3. Not fulfilled

Given the entry TCTTGTAGATCAAGCAGGTTAAGTAAGCCTGAGT , answer whether its PBM binding z-score meets or surpasses 3. Not fulfilled

Given the entry ACATGTAGGTTAAGGGTCATTCAGGTTGGTTCGC , answer whether its PBM binding z-score meets or surpasses 3. Fulfilled

Given the entry CGTCCAAGGTCAGCAGGTCAGTTAAAGCGACGTG , answer whether its PBM binding z-score meets or surpasses 3. Fulfilled

Given the entry AGTCAAAGTTCAGGATGAGGTAACGTAAAGCACG , answer whether its PBM binding z-score meets or surpasses 3. Fulfilled

Given the entry AGAACGAGGGCACGCTGAGTTGATCGCAGAGTAG , answer whether its PBM binding z-score meets or surpasses 3. Not fulfilled

Given the entry AGTCAAAGTTCACTAGGTAACGTTAGATTCAGCT , answer whether its PBM binding z-score meets or surpasses 3. Fulfilled

Given the entry TCTTGTACATCAATAGAGGTTAAGAAAGTGCGCT , answer whether its PBM binding z-score meets or surpasses 3. Not fulfilled

Given the entry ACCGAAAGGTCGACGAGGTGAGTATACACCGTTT , answer whether its PBM binding z-score meets or surpasses 3. Not fulfilled

Given the entry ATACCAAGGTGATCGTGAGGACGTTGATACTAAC , answer whether its PBM binding z-score meets or surpasses 3. Not fulfilled

---

- Test system: PPARg:RXRa 90nM:30nM, anti-RXR (NR concentration 90 nM, RXRa partner concentration 30 nM)
- assay-method-text: PBM binding z-score (relative to random genomic background probes); higher = stronger binding; sequences stand for … in GC…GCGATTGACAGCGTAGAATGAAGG
Each entry below carries its reported PBM binding z-score.
Enter a number only.

Here's what some known entries look like.
- sequence-input: "CGTCCAAGGTCATAGGAGGTCTGTGAAGACAGAT"
  PBM binding z-score: 3.88
- sequence-input: "CCTACTGGGCCATCAGGTCAGTGATATCAACGTT"
  PBM binding z-score: 1.92
- sequence-input: "ATCTCTAGGAAAGACTCAGTTCAGTGAAGAACGC"
  PBM binding z-score: -0.119
- sequence-input: "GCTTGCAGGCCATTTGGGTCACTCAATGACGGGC"
  PBM binding z-score: 0.391
- sequence-input: "CCTAATTGGTCAAGGTCACACACGCTATAGGTAC"
  PBM binding z-score: 2.69

Could you share which PBM binding z-score value was measured for CCTAGTTGATCAGGAGGTCACACACCGGATATGA ? 1.99

Could you share which PBM binding z-score value was measured for CCTACTGGGCCTTTCAGAGGTCATTGATCATATG ? 1.2

Could you share which PBM binding z-score value was measured for TAGCCTAGGTCATGAGCCAGTATACCACGCGAAC ? 2.05

Could you share which PBM binding z-score value was measured for AGAAGGAGGGCAATGAGTTGATAGCACGGGTGGC ? 0.451

Could you share which PBM binding z-score value was measured for CCGACTAGGGCAAGGTTACCATAACGCACAGCCA ? 3.28

Could you share which PBM binding z-score value was measured for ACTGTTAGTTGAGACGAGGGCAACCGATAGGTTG ? 0.0713

Could you share which PBM binding z-score value was measured for TAGCCTAGATCATGGGCCAGTATACCACGCGAAC ? -0.462
